Ref: BigSolDB 2.1

# ASSAY CONTEXT: in n-heptanol, 293.15 K
QUANTITY NAME: solubility (mole fraction)
Respond using a number only.

Item C=CC(=O)NC(C)(C)CS(=O)(=O)O has what recorded solubility (mole fraction)?
0.00426

----------
# ASSAY CONTEXT: in acetonitrile, 308.15 K
QUANTITY NAME: solubility (mole fraction)

Record request: solubility (mole fraction) value, item C=CC(=O)NC(C)(C)CS(=O)(=O)O
0.000436

----------
# ASSAY CONTEXT: in methanol, 313.15 K
QUANTITY NAME: solubility (mole fraction)
Output: the number by itself.

Recorded solubility (mole fraction) for C=CC(=O)NC(C)(C)CS(=O)(=O)O , please?
0.0227

----------
# ASSAY CONTEXT: in ethanol, 303.15 K
QUANTITY NAME: solubility (mole fraction)

Looking for the measured solubility (mole fraction) of C=CC(=O)NC(C)(C)CS(=O)(=O)O , can you help?
0.0118

----------
# ASSAY CONTEXT: in cyclohexane, 293.15 K
QUANTITY NAME: solubility (mole fraction)
Enter a number only.

Given C=CC(=O)NC(C)(C)CS(=O)(=O)O , state its recorded solubility (mole fraction).
7.77e-05

----------
# ASSAY CONTEXT: in 1,4-dioxane, 303.15 K
QUANTITY NAME: solubility (mole fraction)
Number only, no unit.

Requested field: solubility (mole fraction). Item: C=CC(=O)NC(C)(C)CS(=O)(=O)O
0.000425

----------
# ASSAY CONTEXT: in n-butanol, 298.15 K
QUANTITY NAME: solubility (mole fraction)
Please give the numeric answer without any surrounding text.

# solubility (mole fraction) lookup, item C=CC(=O)NC(C)(C)CS(=O)(=O)O
0.0055

----------
# ASSAY CONTEXT: in acetone, 288.15 K
QUANTITY NAME: solubility (mole fraction)
No unit in the answer, only the number.

Quick check: solubility (mole fraction) of C=CC(=O)NC(C)(C)CS(=O)(=O)O ?
0.00695

----------
# ASSAY CONTEXT: in n-butanol, 303.15 K
QUANTITY NAME: solubility (mole fraction)
API note: the answer field is a bare number with no unit suffix.

Would you kindly share the measured solubility (mole fraction) for C=CC(=O)NC(C)(C)CS(=O)(=O)O ?
0.00649

----------
# ASSAY CONTEXT: in cyclohexane, 308.15 K
QUANTITY NAME: solubility (mole fraction)
Answer with a number only.

# input compound: C=CC(=O)NC(C)(C)CS(=O)(=O)O ; wanted: its solubility (mole fraction)
0.000359

----------
# ASSAY CONTEXT: in n-propanol, 308.15 K
QUANTITY NAME: solubility (mole fraction)
Just the number.

Name the recorded solubility (mole fraction) for C=CC(=O)NC(C)(C)CS(=O)(=O)O .
0.0091

----------
# ASSAY CONTEXT: in ethyl acetate, 328.15 K
QUANTITY NAME: solubility (mole fraction)
Respond using a number only.

What does the record list as solubility (mole fraction) for C=CC(=O)NC(C)(C)CS(=O)(=O)O ?
0.0103

----------
# ASSAY CONTEXT: in ethanol, 288.15 K
QUANTITY NAME: solubility (mole fraction)

Dear colleague, I am looking for the recorded solubility (mole fraction) of the following molecule: C=CC(=O)NC(C)(C)CS(=O)(=O)O
0.00794
